The measurements presented in this section are drawn from ChEMBL document CHEMBL3244206.

target.system: UniProtKB P00380
Sequence (P00380 whole entry): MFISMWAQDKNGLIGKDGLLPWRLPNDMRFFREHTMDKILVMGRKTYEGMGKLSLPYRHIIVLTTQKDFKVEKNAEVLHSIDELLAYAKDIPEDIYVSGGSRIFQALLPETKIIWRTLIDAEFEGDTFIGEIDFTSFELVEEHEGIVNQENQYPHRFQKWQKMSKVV
quantity.name: log10 IC50 (log10 of the value in nM)
Give log10 of IC50, with IC50 taken in nM.

Returns the measured log10 IC50 for the input compound. Input: Nc1nc(N)c2c(Cl)c(CNc3ccc(C(=O)N[C@@H](CCC(=O)O)C(=O)O)cc3)ccc2n1
-0.15

Try this compound next: Cc1c(NCc2ccc(C(=O)N[C@@H](CCC(=O)O)C(=O)O)cc2)ccc2nc(N)nc(N)c12
0.92

Try this compound next: Nc1nc(N)c2cc(NCc3ccc(C(=O)N[C@@H](CCC(=O)O)C(=O)O)cc3)ccc2n1
1.51

Try this compound next: Cc1c(CNc2ccc(C(=O)N[C@@H](CC(=O)O)C(=O)O)cc2)ccc2ncnc(N)c12
0.40

Try this compound next: CCOC(=O)CC[C@H](NC(=O)c1ccc(CNc2ccc3nc(N)nc(O)c3c2C)cc1)C(=O)OCC
5.06

Try this compound next: CCOC(=O)CC[C@H](NC(=O)c1ccc(CNc2ccc3nc(N)nc(N)c3c2C)cc1)C(=O)OCC
0.59
